Assay: ATG_NRF2_ARE_CIS: Attagene CIS-FACTORIAL HepG2 Assay for human Nuclear Factor Erythroid 2 Related Factor 2 (NFR2) response to Antioxidant Response Elements (ARE) (AID 2282992)
Conditions: HepG2 Attagene ARE/NRF2 reporter, transcription factor activity; actives raise or lower the signal
The source made the active and inactive calls. How the source made its calls: active means hit-call score of the fitted dose curve at least 0.9, where 1 is the maximum; inactive means score below 0.9.
Outcome codes: T for active, F for inactive

molecule="CC(C)(C)C1CCC(O)CC1 (stereo unspecified)" category_label=F
molecule=O=C(O)c1ccco1 category_label=F
molecule=CC(C)CCCC(C)(C)O category_label=F
molecule=CN1CCc2cccc3c2[C@H]1Cc1ccc(O)c(O)c1-3 category_label=T
molecule="CC1=CCC(C(C)(C)O)CC1 (stereo unspecified)" category_label=F
molecule=COC(=O)c1ccc(C(=O)OC)cc1 category_label=F
molecule=CCCCCCCCCCCCCC(=O)OCC category_label=F
molecule="CCCCCCCC1CCCC1=O (stereo unspecified)" category_label=F
molecule=NC(=O)c1cnccn1 category_label=F
molecule=CC1=C(C=O)C(C)(C)CCC1 category_label=F
molecule=CN(C)C category_label=F
molecule=O=S(=O)(O)CCCN1CCOCC1 category_label=F
molecule=CCCO[Si](OCCC)(OCCC)OCCC category_label=F
molecule=COc1ccc2[nH]cc(CCNC(C)=O)c2c1 category_label=F
molecule=CC(C)=CCCC(C)=CC(=O)O category_label=F
molecule="C=C(C)CCCC(C)CCO (stereo unspecified)" category_label=T

* * *

Read-out: Interleukin-8 (IL8), CXCL8 (gene 3576)
Test: BSK_CASM3C_IL8: BioMAP Diversity Plus: CASM3C Assay for Interleukin-8 (IL8) Biomarker Activity (AID 2283042);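 further: IL-8 protein level quantified by ELISA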
Details: primary human coronary artery smooth muscle cells; actives raise or lower the signal
Active and inactive are the calls of the source. The calls were made as follows: active = hit-call score of the fitted dose curve at least 0.9, where 1 is the maximum; inactive = score below 0.9.
Outcome codes: active, inactive

smiles_code=c1ccc(Sc2ccccc2)cc1 category_label=inactive
smiles_code=c1ccc2c(c1)-c1ccc3ccc4cccc5cc-2c1c3c45 category_label=inactive
smiles_code=O=C(c1ccc(OCCN2CCCCC2)cc1)c1c(-c2ccc(O)cc2)sc2cc(O)ccc12 category_label=inactive
smiles_code=CC(=O)c1ccc(C)cc1 category_label=inactive
smiles_code=O=C(O)C(F)(F)OC(F)(F)C(F)(F)OC(F)(F)C(F)(F)C(F)(F)C(F)(F)F category_label=inactive
smiles_code=C=CC(=O)OCC(CO)(COC(=O)C=C)COC(=O)C=C category_label=active
smiles_code=CCCCCCCCCCCCS category_label=inactive
smiles_code=CCOC(=O)CCCCCCCCC(=O)OCC category_label=inactive
smiles_code=CCCCN(CCO)CCO category_label=inactive
smiles_code=c1ccc(OCCOc2ccccc2)cc1 category_label=inactive
smiles_code=CC(C)(CO)CO category_label=inactive
smiles_code=COC(=O)c1ccc(C(=O)OC)cc1 category_label=inactive
smiles_code=O=C1OC2(c3ccc(O)cc3Oc3cc(O)ccc32)c2ccccc21 category_label=inactive
smiles_code=CC(C)CCCC(C)(C)O category_label=inactive

* * *

Biological target: Aryl hydrocarbon receptor (Homo sapiens)
Test: ATG_Ahr_CIS: Attagene CIS-FACTORIAL HepG2 Assay for human Aryl Hydrocarbon Receptor (Ahr) (AID 2282930)
Details: HepG2 AhR cis-factorial reporter transcription; actives raise or lower the signal
Activity calls are given as the source filed them. How the source made its calls: active means hit-call score of the fitted dose curve at least 0.9, where 1 is the maximum; inactive means score below 0.9.
Outcome codes: active, inactive

compound=[O-]/[N+](=N\O)c1ccccc1 target_or_system="Aryl hydrocarbon receptor (Homo sapiens)" category_label=active
compound=C[C@H](CCC(=O)O)[C@H]1CC[C@H]2[C@@H]3CC[C@@H]4C[C@H](O)CC[C@]4(C)[C@H]3CC[C@]12C target_or_system="Aryl hydrocarbon receptor (Homo sapiens)" category_label=active
compound=CCCCCCCCOS(=O)(=O)O target_or_system="Aryl hydrocarbon receptor (Homo sapiens)" category_label=inactive
compound=CCCCCCOC(C)=O target_or_system="Aryl hydrocarbon receptor (Homo sapiens)" category_label=inactive
compound=S=c1[nH][nH]c(=S)s1 target_or_system="Aryl hydrocarbon receptor (Homo sapiens)" category_label=inactive
compound="CC/C=C\\CCOC(C)OCC (centres undefined)" target_or_system="Aryl hydrocarbon receptor (Homo sapiens)" category_label=inactive
compound="C=CC(C)CCCC(C)(C)O (centres undefined)" target_or_system="Aryl hydrocarbon receptor (Homo sapiens)" category_label=inactive
compound=O=S1(=O)CC(Cl)(Cl)C(Cl)(Cl)C1 target_or_system="Aryl hydrocarbon receptor (Homo sapiens)" category_label=inactive
compound="CC(O)COCC(C)O (centres undefined)" target_or_system="Aryl hydrocarbon receptor (Homo sapiens)" category_label=inactive
compound=CC(C)(O)C(=O)c1ccc(OCCO)cc1 target_or_system="Aryl hydrocarbon receptor (Homo sapiens)" category_label=inactive
compound="CCCC(O)C(CC)CO (centres undefined)" target_or_system="Aryl hydrocarbon receptor (Homo sapiens)" category_label=inactive
compound=CCOC(=O)CCCCCCCCC(=O)OCC target_or_system="Aryl hydrocarbon receptor (Homo sapiens)" category_label=inactive
compound=CC/C(=C(\c1ccccc1)c1ccc(OCCN(C)C)cc1)c1ccccc1 target_or_system="Aryl hydrocarbon receptor (Homo sapiens)" category_label=inactive
compound=CCO[Si](CC)(OCC)OCC target_or_system="Aryl hydrocarbon receptor (Homo sapiens)" category_label=inactive
